Biological target: Bcl-2, P10415
Sequence (P10415 1-217): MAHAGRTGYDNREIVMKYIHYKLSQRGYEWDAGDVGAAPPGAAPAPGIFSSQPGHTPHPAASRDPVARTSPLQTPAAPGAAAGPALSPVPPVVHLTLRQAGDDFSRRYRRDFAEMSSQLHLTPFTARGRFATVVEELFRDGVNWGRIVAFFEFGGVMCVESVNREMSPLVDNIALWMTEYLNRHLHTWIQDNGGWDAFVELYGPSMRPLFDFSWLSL
Assay: peptide SPOT array, c-Myc-tagged receptor at 1 uM or 100 nM, anti-c-Myc-Cy3
quantity measured: SPOT signal as a fraction of Bim BH3's signal on the same receptor and array
Write the number on its own, no unit after it.

{"binder": "KFMKTIPGTALVEMGDEYAVERAVTH [HNRPLL]", "measured": 0.01}

Qu. For the binder KEVEDCVPVFLKHIAHDIYVCGKTIN [TUBGCP6] , what SPOT signal as a fraction of Bim BH3's signal on the same receptor and array is on record?
Ans. 0.01

Qu. Next entry: NMSNYSSSSLLSGAGKDSLVEHDEEF [KIAA0367]
Ans. 0.01

Qu. Next entry: ALTVKEMAQMLQSFGTELAETELPDD [MCF2]
Ans. 0.01

Qu. Next entry: LKELDLSGNSLSHSAVKSLCKTLRRP [NLRP1]
Ans. 0.09

Qu. Next entry: LGHTGLACLFLKRGADLGARDSEGRD [ACAP1]
Ans. 0.03

Qu. Next entry: DISALTASNLLKKYAEKYSGILEGPV [FIGN]
Ans. 0.06
